Test: chemical genetic growth profiling, strain panel (AID 1159580);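 note: tested at 20 µM; growth read once vehicle control cultures reached saturation at 30 °C; 1 = growth at the plate median or of vehicle wells; lower values mean less growth of the strain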
Conditions: S. cerevisiae deletion strains, growth OD, locus YDL035C, strain GPR1, hits give low values
The whole screen tested about 5,500 compounds, of which about 2,000 (36%) were called active. Roughly 18% stayed inconclusive and do not appear here. The list shows a part of the results.
Below is a list of entries, each paired with its recorded normalized growth value.
READOUT: normalized growth

COMPOUND: CC(=O)O[C@H]1CC[C@@]2(C)C(=CCC3C2CC[C@]2(C)C(=O)CCC32)C1 (stereo partly specified)
READOUT: normalized growth
VALUE_OBSERVED: 0.686
//
COMPOUND: COc1cc(C(=O)O)cc(OC)c1O
READOUT: normalized growth
VALUE_OBSERVED: 1.01
//
COMPOUND: CCOP(=S)(OCC)SCSP(=S)(OCC)OCC
READOUT: normalized growth
VALUE_OBSERVED: 0.956
//
COMPOUND: O=C(O)P(=O)(O)O
READOUT: normalized growth
VALUE_OBSERVED: 1
//
COMPOUND: CC12CCC3C(CC=C4CC(O)CCC43C)C1CCC2=O (stereo unspecified)
READOUT: normalized growth
VALUE_OBSERVED: 0.787
//
COMPOUND: CCOC(=O)C1=C[C@]2(CC)CCCN3CCc4c(n1c1ccccc41)[C@@H]32
READOUT: normalized growth
VALUE_OBSERVED: 0.977
//
COMPOUND: CC[C@]12CCCN3CCc4c(n(c5ccccc45)C(=O)C1)[C@@H]32
READOUT: normalized growth
VALUE_OBSERVED: 0.941
//
COMPOUND: NC(=O)c1cnccn1
READOUT: normalized growth
VALUE_OBSERVED: 1.01
//
COMPOUND: NC(=O)N/N=C\c1ccc([N+](=O)[O-])o1
READOUT: normalized growth
VALUE_OBSERVED: 1.01
//
COMPOUND: CN(Cc1cc(Br)cc(Br)c1N)C1CCCCC1
READOUT: normalized growth
VALUE_OBSERVED: 0.943
//
COMPOUND: CC[C@@H]1[C@@H](O)N2C3C[C@H]1C1C(O)[C@]4(C[C@@H]12)c1ccccc1N(C)[C@@H]34 (stereo partly specified)
READOUT: normalized growth
VALUE_OBSERVED: 1.01
//
COMPOUND: O=C1CN(/N=C\c2ccc([N+](=O)[O-])o2)C(=O)N1
READOUT: normalized growth
VALUE_OBSERVED: 0.978
//
COMPOUND: O=C(O)c1cc(=O)c(O)c2c(O)c(O)ccc2c1
READOUT: normalized growth
VALUE_OBSERVED: 1
//
COMPOUND: C=CCc1cc(OC)c2c(c1OC)OCO2
READOUT: normalized growth
VALUE_OBSERVED: 0.968
//
COMPOUND: C[C@@H]1C[C@@H]([C@H](O)CC2CC(=O)NC(=O)C2)C(=O)[C@@H](C)C1
READOUT: normalized growth
VALUE_OBSERVED: 0.0555
//
COMPOUND: O=C(O)c1cc(O)c(O)c(O)c1
READOUT: normalized growth
VALUE_OBSERVED: 1.07
//
COMPOUND: CC[C@]12CCCN3CCc4c(n(c5ccccc45)[C@](O)(C(=O)OC)C1)[C@@H]32
READOUT: normalized growth
VALUE_OBSERVED: 0.966
//
COMPOUND: CC[C@@]1(C2O[C@@H](C3O[C@@](O)(CC)[C@H](C)C[C@@H]3C)C[C@@H]2C)CC[C@H]([C@]2(C)CCC3(C[C@H](O)[C@@H](C)[C@@H]([C@H](C)[C@@H](OC)[C@H](C)C(=O)O)O3)O2)O1 (stereo partly specified)
READOUT: normalized growth
VALUE_OBSERVED: 1.04
//
COMPOUND: CC(C)C1=CC2=CCC3[C@](C)(CCC[C@]3(C)C(=O)O)C2CC1 (stereo partly specified)
READOUT: normalized growth
VALUE_OBSERVED: 0.918
//
COMPOUND: CC(=O)O[C@H]1CC[C@@]2(C)C(=CCC3C2CC[C@@]2(C)C3CC[C@@H]2C(C)CCCC(C)C)C1 (stereo partly specified)
READOUT: normalized growth
VALUE_OBSERVED: 1.03
//
COMPOUND: CC(=O)OCC(=O)[C@@]12OC(C)(C)O[C@@H]1CC1C3C[C@H](F)C4=CC(=O)C=C[C@]4(C)[C@@]3(F)[C@@H](O)C[C@@]12C (stereo partly specified)
READOUT: normalized growth
VALUE_OBSERVED: 0.99
